- target or system: Microphthalmia-associated transcription factor (Homo sapiens)
- test summary: MITF inhibitors, primary screen, biochemical, AlphaScreen, human (AID 1259374);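 also: 0% = vehicle wells with protein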
- cond: AlphaScreen MITF homodimerization, bead proximity signal; at 2.6 µM; stronger effect = higher value
Out of some 650,000 compounds screened, about 5,900 (0.91%) were called active. The sample as a whole holds a higher share of actives than the screen did.
value kind: inhibition (%)
Note: unit % is implicit; provide only the numeric part.

Answered examples (2):
molecule	inhibition (%)
O=C(O)CCCCC1SCC2NC(=O)NC21O (stereo unspecified)	115
CC(CCn1cccn1)NC(=O)CCc1nnc(-c2ccccc2)o1 (stereo unspecified)	1.03

IN: Give its inhibition value. Item: CC(=O)Oc1ccccc1C(=O)Nc1ccc(Cl)c(Cl)c1
OUT: 0.46

IN: What about COc1cc(CN2CCC(N3CCC(C(=O)NCC4CCCO4)CC3)CC2)cc(OC)c1 (stereo unspecified) ?
OUT: 6.5
